# procedure_summary: Plasma pharmacokinetics of topotecan upon i.v. administration
# Format: in vivo
# condition_details: rat, iv, normal rats, dose of 15 mg/mL, read-out: AUC0-10 h, topotecan Lactone
measured_attribute: AUC(0-t) (ng·h/mL)
Answer in ng·h/mL, number only, no unit symbol.

Exercise: // lookup AUC(0-t) for CC[C@@]1(O)C(=O)OCc2c1cc1n(c2=O)Cc2cc3c(CN(C)C)c(O)ccc3nc2-1 [Topotecan, topotecan]
Key: 454

###

# procedure_summary: Oral bioavailability of Pluronic P85 formulated and unformulated topotecan (gavage)
# Format: in vivo
# condition_details: rat; normal rats, oral gavage of solution, 15 mg/kg, plasma; read-out: Cmax, topotecan Lactone
measured_attribute: Cmax (ng/mL)
Provide the reading as a plain figure in ng/mL.

Exercise: Reported Cmax for CC[C@@]1(O)C(=O)OCc2c1cc1n(c2=O)Cc2cc3c(CN(C)C)c(O)ccc3nc2-1 [Topotecan, topotecan] : what is it?
Key: 20.3

###

# procedure_summary: Solubility of topotecan in formulations with Pluronic P85
# Assay type: physicochemical
# condition_details: aqueous buffer, thermodynamic from solid, PBS pH 7.2, room temperature, read-out: Topotecan concentration (solubility)
# Protocol: Calibration. Fluorescence of 0.300 mL samples of topotecan solutions in methanol containing between 0.00006 and 0.001 mg/mL, in triplicates on Helma Quarz plate, was measured using Bio-Tek FL600 fluorescence plate reader with excitation filter wavelength/bandwidth 360/40 nm and emission filter 530/25 nm, sensitivity 70. The average fluorescence was fitted to a linear equation and gave: where C=topotecan concentration [mg/mL]. Solubility. […]
measured_attribute: solubility at 1 h (µg/mL)
Respond with the bare value in µg/mL.

Exercise: Given the compound CC[C@@]1(O)C(=O)OCc2c1cc1n(c2=O)Cc2cc3c(CN(C)C)c(O)ccc3nc2-1 , what is its reported solubility at 1 h?
Key: 62

###

# procedure_summary: Solubility of camptothecin in formulations with Pluronic P85
# Assay type: physicochemical
# condition_details: 1% Pluronic P85 in PBS, aqueous with cosolvent or surfactant or cyclodextrin, thermodynamic from solid, P85 1% in PBS pH 7.2, room temperature, read-out: Camptothecin concentration (solubility)
measured_attribute: solubility at 1 h (µg/mL)
A number alone suffices; assume µg/mL.

Exercise: Data request, read-out solubility at 1 h, for CC[C@@]1(O)C(=O)OCc2c1cc1n(c2=O)Cc2cc3ccccc3nc2-1 [Camptothecin]
Key: 3.1

###

# procedure_summary: Solubility of camptothecin in formulations with Pluronic P85
# Format: physicochemical
# condition_details: 3% Pluronic P85 in PBS, aqueous with cosolvent or surfactant or cyclodextrin, thermodynamic from solid, P85 3% in PBS pH 7.2, room temperature, read-out: Camptothecin concentration (solubility)
measured_attribute: solubility at 1 h (µg/mL)
Note: unit µg/mL is implicit; provide only the numeric part.

Exercise: May I ask what solubility at 1 h has been recorded for CC[C@@]1(O)C(=O)OCc2c1cc1n(c2=O)Cc2cc3ccccc3nc2-1 [Camptothecin] ?
Key: 4.9

###

# procedure_summary: Oral bioavailability of Pluronic P85 formulated and unformulated topotecan (gavage)
# Format: in vivo
# condition_details: rat; normal rats, oral gavage of solution, 15 mg/kg, plasma; read-out: AUC0-10 h, topotecan Lactone
measured_attribute: AUC(0-t) (ng·h/mL)
Respond numerically; units are ng·h/mL and should not be typed.

Exercise: Look up AUC(0-t): CC[C@@]1(O)C(=O)OCc2c1cc1n(c2=O)Cc2cc3c(CN(C)C)c(O)ccc3nc2-1 [Topotecan, topotecan]
Key: 80.5
